# key: entry, value: IC50
Target Desc: mouse 11β-HSD1 (Mus musculus)
Construct: 100 ug/ml human/mouse liver microsomes; from tissue; host or cells: mouse liver microsomes
Sequence (P50172 whole entry): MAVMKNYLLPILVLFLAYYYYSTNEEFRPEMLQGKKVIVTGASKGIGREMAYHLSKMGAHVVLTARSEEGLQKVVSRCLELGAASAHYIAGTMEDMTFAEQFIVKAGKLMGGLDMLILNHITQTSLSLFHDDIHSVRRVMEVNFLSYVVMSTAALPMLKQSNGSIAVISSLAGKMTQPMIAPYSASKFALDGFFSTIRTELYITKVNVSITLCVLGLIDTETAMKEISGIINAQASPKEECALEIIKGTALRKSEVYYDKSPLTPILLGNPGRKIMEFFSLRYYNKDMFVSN
Test Protocol: Enzyme activity analysis on mouse 11β-HSD1 (HTRF cortisol, liver microsomes)
Type: biochemical
Study Conditions: second value of cell
Readout Name: IC50 (µM)

{"Compound": "CC(C)(NS(=O)(=O)c1ccc(OC(F)(F)F)cc1)C(=O)NC1C2CC3CC(C2)CC1C3 (stereo not shown)", "Target Desc": "mouse 11β-HSD1 (Mus musculus)", "Numeric Readout": 1.68}
{"Compound": "CC(C)(NS(=O)(=O)c1cc(C(F)(F)F)ccc1Br)C(=O)NC1C2CC3CC1CC(C(N)=O)(C3)C2 (stereo not shown)", "Target Desc": "mouse 11β-HSD1 (Mus musculus)", "Numeric Readout": 0.556}
{"Compound": "NC(=O)C12CC3CC(C1)C(NC(=O)C1(NS(=O)(=O)c4cccc(Cl)c4F)CCCC1)C(C3)C2 (stereo not shown)", "Target Desc": "mouse 11β-HSD1 (Mus musculus)", "Numeric Readout": 0.006}
{"Compound": "NC(=O)C12CC3CC(C1)C(NC(=O)C1(NS(=O)(=O)c4ccccc4[N+](=O)[O-])CCCC1)C(C3)C2 (stereo not shown)", "Target Desc": "mouse 11β-HSD1 (Mus musculus)", "Numeric Readout": 0.038}

* * *

Measured IC50 values are reported for all entries that follow.
Target Desc: mouse 11β-HSD1 (Mus musculus)
Construct: 100 ug/ml human/mouse liver microsomes; from tissue; host or cells: mouse liver microsomes
Test Protocol: Enzyme activity analysis on mouse 11β-HSD1 (HTRF cortisol, liver microsomes)
Type: biochemical
Study Conditions: second value of cell
Readout Name: IC50 (µM)

{"Compound": "COc1ccc(S(=O)(=O)NC(C)(C)C(=O)NC2C3CC4CC2CC(C(N)=O)(C4)C3)cc1 (stereo not shown)", "Readout Relation": ">", "Numeric Readout": 2.5}
{"Compound": "Cc1ccc(F)c(S(=O)(=O)NC(C)(C)C(=O)NC2C3CC4CC2CC(C(N)=O)(C4)C3)c1 (stereo not shown)", "Readout Relation": "=", "Numeric Readout": 0.123}
{"Compound": "CC(C)(NS(=O)(=O)c1cccc([N+](=O)[O-])c1)C(=O)NC1C2CC3CC1CC(C(N)=O)(C3)C2 (stereo not shown)", "Readout Relation": "=", "Numeric Readout": 0.563}
{"Compound": "NC(=O)C12CC3CC(C1)C(NC(=O)C1(NS(=O)(=O)c4ccccc4Cl)CCC1)C(C3)C2 (stereo not shown)", "Readout Relation": "=", "Numeric Readout": 0.099}
{"Compound": "CC(C)(NS(=O)(=O)c1ccccc1OC(F)(F)F)C(=O)NC1C2CC3CC1CC(C(N)=O)(C3)C2 (stereo not shown)", "Readout Relation": "=", "Numeric Readout": 0.03}
{"Compound": "CC(C)(NS(=O)(=O)c1ccc(Cl)cc1Cl)C(=O)NC1C2CC3CC1CC(C(N)=O)(C3)C2 (stereo not shown)", "Readout Relation": "=", "Numeric Readout": 0.056}
{"Compound": "CC(C)(NS(=O)(=O)c1c(Cl)cccc1Cl)C(=O)NC1C2CC3CC1CC(C(N)=O)(C3)C2 (stereo not shown)", "Readout Relation": "=", "Numeric Readout": 0.004}

* * *

Target Desc: human 11β-HSD1 (Homo sapiens)
Construct: 100 ug/ml human/mouse liver microsomes; from tissue; host or cells: human liver microsomes
Test Protocol: Enzyme activity analysis on human 11β-HSD1 (HTRF cortisol, liver microsomes)
Type: biochemical
Study Conditions: first value of cell
Rule: IC50 below 0.1 µM gives Y. Equal to or above 0.1 µM gives N.

{"Molecule": "CCN(C(C)(C)C(=O)NC1C2CC3CC1CC(C(N)=O)(C3)C2)S(=O)(=O)c1ccccc1[N+](=O)[O-] (stereo not shown) [compound 216]", "Label Value": "Y"}
{"Molecule": "NC(=O)C12CC3CC(C1)C(NC(=O)C1(NS(=O)(=O)c4ccccc4N)CCCCC1)C(C3)C2 (stereo not shown) [compound 220]", "Label Value": "Y"}
{"Molecule": "O=C(NC1C2CC3CC(C2)CC1C3)C1(NS(=O)(=O)c2ccccc2C(F)(F)F)CCC1 (stereo not shown) [compound 140]", "Label Value": "N"}
{"Molecule": "NC(=O)C12CC3CC(C1)C(NC(=O)C1(NS(=O)(=O)c4ccc([N+](=O)[O-])c(C(F)(F)F)c4)CCC1)C(C3)C2 (stereo not shown) [compound 147]", "Label Value": "N"}
{"Molecule": "Cc1c(Cl)cccc1S(=O)(=O)NC1(C(=O)NC2C3CC4CC2CC(C(N)=O)(C4)C3)CCC1 (stereo not shown) [compound 149]", "Label Value": "Y"}
{"Molecule": "CC(C)(NS(=O)(=O)Cc1ccccc1Cl)C(=O)NC1C2CC3CC1CC(C(N)=O)(C3)C2 (stereo not shown) [compound 98]", "Label Value": "N"}

* * *

This listing pairs molecules with measured log10 IC50.
Target Desc: human 11β-HSD1 (Homo sapiens, UniProt P28845)
Construct: 100 ug/ml human/mouse liver microsomes; from tissue; host or cells: human liver microsomes
Sequence (P28845 whole entry): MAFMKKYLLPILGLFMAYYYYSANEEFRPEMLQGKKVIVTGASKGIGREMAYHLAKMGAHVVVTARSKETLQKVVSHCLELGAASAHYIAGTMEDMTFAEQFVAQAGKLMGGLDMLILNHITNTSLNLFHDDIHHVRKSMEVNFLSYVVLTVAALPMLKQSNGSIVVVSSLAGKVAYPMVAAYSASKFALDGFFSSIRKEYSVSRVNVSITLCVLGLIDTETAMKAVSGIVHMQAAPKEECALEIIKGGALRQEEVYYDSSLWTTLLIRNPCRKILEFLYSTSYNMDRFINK
Test Protocol: Enzyme activity analysis on human 11β-HSD1 (HTRF cortisol, liver microsomes)
Type: biochemical
Study Conditions: first value of cell
Readout Name: log10 IC50 (log10 of the value in µM)

{"Molecule": "CC(C)(NS(=O)(=O)c1c(F)cccc1F)C(=O)NC1C2CC3CC(C2)CC1C3 (stereo not shown)", "log10 IC50": -1.39}
{"Molecule": "Cc1c(Cl)cccc1S(=O)(=O)NC1(C(=O)NC2C3CC4CC2CC(C(N)=O)(C4)C3)CC1 (stereo not shown)", "log10 IC50": -1.82}
{"Molecule": "Cc1cc(C)cc(S(=O)(=O)NC(C)(C)C(=O)NC2C3CC4CC2CC(C(N)=O)(C4)C3)c1 (stereo not shown)", "log10 IC50": -1.80}
{"Molecule": "CC(C)(NS(=O)(=O)c1cccc(Cl)c1)C(=O)NC1C2CC3CC(C2)CC1C3 (stereo not shown)", "log10 IC50": -0.67}
{"Molecule": "O=C(NC1C2CC3CC(C2)CC1C3)C1(NS(=O)(=O)c2ccccc2)CCC1 (stereo not shown)", "log10 IC50": -0.26}
{"Molecule": "CCc1ccc(S(=O)(=O)NC(C)(C)C(=O)NC2C3CC4CC(C3)CC2C4)cc1 (stereo not shown)", "log10 IC50": -0.68}
{"Molecule": "COc1ccc(S(=O)(=O)NC(C)(C)C(=O)NC2C3CC4CC(C3)CC2C4)cc1 (stereo not shown)", "log10 IC50": -0.39}
{"Molecule": "CC(C)(NS(=O)(=O)c1ccc2ccccc2c1)C(=O)NC1C2CC3CC(C2)CC1C3 (stereo not shown)", "log10 IC50": -0.33}
{"Molecule": "CC(C)(NS(=O)(=O)c1ccccc1C(F)(F)F)C(=O)NC1C2CC3CC(C2)CC1C3 (stereo not shown)", "log10 IC50": -1.49}
{"Molecule": "COc1ccccc1S(=O)(=O)NC(C)(C)C(=O)NC1C2CC3CC1CC(C(N)=O)(C3)C2 (stereo not shown)", "log10 IC50": -1.21}
{"Molecule": "CC(C)(NS(=O)(=O)c1cc(Cl)ccc1Cl)C(=O)NC1C2CC3CC(C2)CC1C3 (stereo not shown)", "log10 IC50": -1.04}
{"Molecule": "CC(C)(NS(=O)(=O)c1cccc2cccnc12)C(=O)NC1C2CC3CC(C2)CC1C3 (stereo not shown)", "log10 IC50": -2.10}
{"Molecule": "CC(C)(NS(=O)(=O)Cc1ccc(C(F)(F)F)cc1)C(=O)NC1C2CC3CC(C2)CC1C3 (stereo not shown)", "log10 IC50": -1.40}

* * *

Target Desc: mouse 11β-HSD1 (Mus musculus)
Construct: 100 ug/ml human/mouse liver microsomes; from tissue; host or cells: mouse liver microsomes
Test Protocol: Enzyme activity analysis on mouse 11β-HSD1 (HTRF cortisol, liver microsomes)
Assay type: biochemical
Study Conditions: second value of cell
Method: After culturing at 37° C. for 2 hours, 5 μl of cryptate-labeled anti-cortisol antibody and 5 μl of d2-labeled cortisol were added thereto. After further culturing at room temperature for 2 hours, a homogeneous time-resolved fluorescence (HTRF, Cisbio) signal was measured. From each analysis, based on a standard curve calculated using cortisols of several known concentrations, an amount of produced cortisol was tested. […]
Readout Name: log10 IC50 (log10 of the value in µM)

{"Compound": "O=C(NC1C2CC3CC(C2)CC1C3)C1(NS(=O)(=O)c2cccc3cccnc23)CCC1 (centres unmarked)", "Target Desc": "mouse 11β-HSD1 (Mus musculus)", "log10 IC50": -0.68}
{"Compound": "CCCc1ccc(S(=O)(=O)NC(C)(C)C(=O)NC2C3CC4CC(C3)CC2C4)cc1 (centres unmarked)", "Target Desc": "mouse 11β-HSD1 (Mus musculus)", "log10 IC50": 0.10}
{"Compound": "CN(C1(C(=O)NC2C3CC4CC2CC(C(N)=O)(C4)C3)CCC1)S(=O)(=O)c1ccccc1[N+](=O)[O-] (centres unmarked)", "Target Desc": "mouse 11β-HSD1 (Mus musculus)", "log10 IC50": -1.80}
{"Compound": "CC(C)(NS(=O)(=O)c1cccc2cccnc12)C(=O)NC1C2CC3CC1CC(C(N)=O)(C3)C2 (centres unmarked)", "Target Desc": "mouse 11β-HSD1 (Mus musculus)", "log10 IC50": -2.22}
{"Compound": "COc1ccccc1S(=O)(=O)NC(C)(C)C(=O)NC1C2CC3CC1CC(C(N)=O)(C3)C2 (centres unmarked)", "Target Desc": "mouse 11β-HSD1 (Mus musculus)", "log10 IC50": -1.42}
{"Compound": "CC(C)(NS(=O)(=O)c1ccc(Cl)cc1F)C(=O)NC1C2CC3CC(C2)CC1C3 (centres unmarked)", "Target Desc": "mouse 11β-HSD1 (Mus musculus)", "log10 IC50": 0.03}
{"Compound": "NC(=O)C12CC3CC(C1)C(NC(=O)C1(NS(=O)(=O)c4c(Cl)cccc4Cl)CCCCC1)C(C3)C2 (centres unmarked)", "Target Desc": "mouse 11β-HSD1 (Mus musculus)", "log10 IC50": -2.30}
{"Compound": "O=C(NC1C2CC3CC(C2)CC1C3)C1(NS(=O)(=O)c2cccc([N+](=O)[O-])c2)CCC1 (centres unmarked)", "Target Desc": "mouse 11β-HSD1 (Mus musculus)", "log10 IC50": 0.16}
{"Compound": "CC(C)(NS(=O)(=O)c1ccccc1[N+](=O)[O-])C(=O)NC1C2CC3CC1CC(C(N)=O)(C3)C2 (centres unmarked)", "Target Desc": "mouse 11β-HSD1 (Mus musculus)", "log10 IC50": -1.40}
{"Compound": "Cc1ccc(F)c(S(=O)(=O)NC2(C(=O)NC3C4CC5CC3CC(C(N)=O)(C5)C4)CCC2)c1 (centres unmarked)", "Target Desc": "mouse 11β-HSD1 (Mus musculus)", "log10 IC50": -0.53}
{"Compound": "CC(C)(NS(=O)(=O)c1ccc([N+](=O)[O-])cc1)C(=O)NC1C2CC3CC1CC(O)(C3)C2 (centres unmarked)", "Target Desc": "mouse 11β-HSD1 (Mus musculus)", "log10 IC50": 0.08}
{"Compound": "CC(C)(NS(=O)(=O)c1cccc(F)c1)C(=O)NC1C2CC3CC(C2)CC1C3 (centres unmarked)", "Target Desc": "mouse 11β-HSD1 (Mus musculus)", "log10 IC50": -0.34}
{"Compound": "CC(C)(NS(=O)(=O)c1ccc(F)cc1C(F)(F)F)C(=O)NC1C2CC3CC(C2)CC1C3 (centres unmarked)", "Target Desc": "mouse 11β-HSD1 (Mus musculus)", "log10 IC50": -0.23}
{"Compound": "NC(=O)C12CC3CC(C1)C(NC(=O)C1(NS(=O)(=O)c4cccc(Cl)c4F)CCC1)C(C3)C2 (centres unmarked)", "Target Desc": "mouse 11β-HSD1 (Mus musculus)", "log10 IC50": -0.90}
{"Compound": "NC(=O)C12CC3CC(C1)C(NC(=O)C1(NS(=O)(=O)c4cccc5cccnc45)CC1)C(C3)C2 (centres unmarked)", "Target Desc": "mouse 11β-HSD1 (Mus musculus)", "log10 IC50": -1.70}
{"Compound": "NC(=O)C12CC3CC(C1)C(NC(=O)C1(NS(=O)(=O)c4ccccc4N)CCCCC1)C(C3)C2 (centres unmarked)", "Target Desc": "mouse 11β-HSD1 (Mus musculus)", "log10 IC50": -0.58}
{"Compound": "NC(=O)C12CC3CC(C1)C(NC(=O)C1(NS(=O)(=O)c4ccccc4Br)CCC1)C(C3)C2 (centres unmarked)", "Target Desc": "mouse 11β-HSD1 (Mus musculus)", "log10 IC50": -0.84}

Every entry's value here was drawn from patent US9073830B2.
